Ref: PubChem BioAssay AID248

The following molecules are shown together with reported T/C values.
system: L1210 leukemia ip in BDF1 mice, survival T/C; assay: NCI In Vivo Anticancer Drug Screen. Data for tumor model L1210 Leukemia (intraperitoneal) in B6D2F1 (BDF1) mice; details: endpoint: mean survival time; dose: 200.0 mg/kg/injection; schedule: Q04DX003 (ip); vehicle: Klucel (hydroxypropylcellulose) (HPC); higher = longer survival
Inconclusive results and toxic doses are left out.

Record excerpt, results attached:
# molecule, system.under.test, T/C
rows = [
    ("CN(C)C(=O)NCc1ccccc1", "L1210 leukemia ip in BDF1 mice, survival T/C", "92 % of control"),
    ("CC(C)/[N+]([O-])=C/C=C/c1ccccc1", "L1210 leukemia ip in BDF1 mice, survival T/C", "97 % of control"),
    ("O=C(Oc1ccc(Cl)cc1)c1ccccc1", "L1210 leukemia ip in BDF1 mice, survival T/C", "105 % of control"),
]

In: Value wanted: T/C (L1210 leukemia ip in BDF1 mice, survival T/C) of entry `CSc1ccc(OC(=O)Nc2cc(C)ccc2C)cc1`
Out: 107 % of control

In: Provide value of T/C for this record tested with L1210 leukemia ip in BDF1 mice, survival T/C: CC(CCc1cccc2ccccc12)C(=O)O (configuration not stated)
Out: 100 % of control

In: Give recorded T/C with L1210 leukemia ip in BDF1 mice, survival T/C for the following molecule: `CCOCCN=Cc1c[nH]c2ccccc12`
Out: 95 % of control

In: Quick check: T/C on L1210 leukemia ip in BDF1 mice, survival T/C, item `Clc1ccc(-c2nc3ccccc3cc2N2CCOCC2)cc1` ?
Out: 103 % of control

In: Observed T/C on L1210 leukemia ip in BDF1 mice, survival T/C for `CCCCOCCOP(=O)(OCCOCCCC)OCCOCCCC` , please.
Out: 98 % of control
